target: Taste receptor type 2 member 31 (Homo sapiens, UniProt P59538); assay: Antagonist activity at human TAS2R31 expressed in HEK-293T cells stably expressing Galpha16gust44 assessed as inhibition receptor response to saccharin by fluorescence assay
Sequence (P59538 whole entry): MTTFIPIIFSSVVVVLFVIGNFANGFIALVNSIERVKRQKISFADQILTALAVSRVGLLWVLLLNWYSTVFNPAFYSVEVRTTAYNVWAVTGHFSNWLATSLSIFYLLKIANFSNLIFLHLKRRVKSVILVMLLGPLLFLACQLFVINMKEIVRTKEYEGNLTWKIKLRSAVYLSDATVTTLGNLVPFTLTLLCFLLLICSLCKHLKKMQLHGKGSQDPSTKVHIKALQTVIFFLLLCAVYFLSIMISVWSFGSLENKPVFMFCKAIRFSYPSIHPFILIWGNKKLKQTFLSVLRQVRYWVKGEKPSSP
pIC50: −log10 of the molar value.
readoutKind: pIC50

>>> resultvalue("C=C1CC[C@H]2C(C)(C)[C@@H](OC(C)=O)CC[C@]2(C)[C@H]1CC/C(C)=C/C(=O)O")
5.10
